# TARGET_SYSTEM: Cytochrome P450 2C19 (Homo sapiens)
# TEST_NAME: qHTS Assay for Inhibitors and Substrates of Cytochrome P450 2C19 (AID 899); also: nearly all actives have a fitted effect of over 60% in size
# CONDITION_DESCRIPTION: recombinant CYP2C19, luciferin-H EGE luminescence; series mostly up to 57.1 µM
Inconclusive results are not listed. Active and inactive are the calls of the source. Calls follow the shape of the dose curve; as a rule, active = well fitted inhibition curve with a large enough effect; inconclusive = small, poorly fitted or top-dose-only effect; inactive = no such curve, though single readings can be large or run the other way.
Tick one outcome: active, inactive

Here's what some known entries look like.
[
  {
    "ITEM_SMILES": "Nc1nc(OCc2ccccc2)c2[nH]cnc2n1",
    "DISCRETE_LABEL": "active"
  },
  {
    "ITEM_SMILES": "N[C@@]1(C(=O)O)CC[C@H](C(=O)O)C1",
    "DISCRETE_LABEL": "inactive"
  },
  {
    "ITEM_SMILES": "c1ccc2c(c1)OC[C@@H](C1=NCCN1)O2",
    "DISCRETE_LABEL": "active"
  }
]

Dear colleague, could you share the recorded outcome for `C/C(O)=C(/C#N)C(=O)Nc1cc(Br)ccc1Br` when you have a moment?
inactive

I would be grateful if you could indicate the recorded call for `O=C(Cc1ccc(Cl)c(Cl)c1)N1CCCC[C@H]1CN1CCCC1` .
active

Which outcome was entered for the molecule `COc1cccc2c1cc([N+](=O)[O-])c1c(C(=O)O)cc3c(c12)OCO3` in this test?
inactive
